Data credit: paper PMC10873254

experiment: in vivo
Design: species or system BALB/c nu/nu female mice
assay_conditions: female, BALB/c nu/nu, mouse, iv, total radioactivity, Carcass uptake
parameter_measured: tissue uptake dose at 4 h (%ID)
One number for each entry, in %ID.

Data request: Provide only the value of recorded tissue uptake dose at 4 h for CCNC(=O)[C@H](CC(C)C)NC(=O)[C@H](Cc1c[nH]cn1)NC(=O)CN(C)C(=O)[C@@H](NC(=O)[C@H](C)NC(=O)[C@H](Cc1c[nH]c2ccccc12)NC(=O)[C@H](CCC(N)=O)NC(=O)[C@@H](Cc1ccccc1)NC(=O)COCC(=O)Nc1ccc(CNC(=O)CCC(C(=O)O)N2CCN(CC(=O)O)CCN(CC(=O)O)CCN(CC(=O)O)CC2)cc1)C(C)C (stereo partly shown) [[^111In]In-AU-SAR-M1, metal not drawn]
Data returned: 1.1
